STUDY TARGET: T1, preproinsulin (PPI) signal peptide peptide on HLA-A*02:01 (human)
T1 peptide: ALWGPDPAAA
ASSAY INFO: data from [20]; method not named; soluble, other
pKd: −log10 of the molar value.

{"BINDER": "1E6 (TCR) alpha TRAV12-3*01 CDR3: AMRGDSSYKLI beta TRBV12-4*01 CDR3: ASSLWEKLAKNIQY", "pKd": "< 3.70"}

Data origin: paper PMC7793522
